Where do these numbers come from? They come from patent US20250237662A1.

# Measurement target: humanized development candidate monoclonal antibody IgG4 (hIgG4)
# Protocol details: Gyrolab, mAb as capture, hIgG4 40 ng/ml
What Av. Resp. was measured for each of the following?
# output: bare number, no unit

Input line: Fill in the blank: the reported Av. Resp. of rabbit anti-human IgG monoclonal antibody clone 19B1 (antibody, V domains shown) VH: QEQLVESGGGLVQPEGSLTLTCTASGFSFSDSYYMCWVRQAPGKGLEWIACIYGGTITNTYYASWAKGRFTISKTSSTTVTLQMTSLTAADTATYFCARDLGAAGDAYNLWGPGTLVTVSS VL: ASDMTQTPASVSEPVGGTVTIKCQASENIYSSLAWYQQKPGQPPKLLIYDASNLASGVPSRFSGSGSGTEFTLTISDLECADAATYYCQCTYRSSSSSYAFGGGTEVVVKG is ____.
Output line: 22.8

Input line: Let us now turn to rabbit anti-human IgG monoclonal antibody clone 11G5 (antibody, V domains shown) VH: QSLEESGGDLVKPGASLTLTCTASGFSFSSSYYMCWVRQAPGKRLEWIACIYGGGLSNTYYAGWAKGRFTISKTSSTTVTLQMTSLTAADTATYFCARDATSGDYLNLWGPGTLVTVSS VL: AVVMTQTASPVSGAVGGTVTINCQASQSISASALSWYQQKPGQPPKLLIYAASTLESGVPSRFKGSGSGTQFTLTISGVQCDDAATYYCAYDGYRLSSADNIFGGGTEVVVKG
Output line: 60.9

Input line: Let us now turn to rabbit anti-human IgG monoclonal antibody clone 2C5 (antibody, V domains shown) VH: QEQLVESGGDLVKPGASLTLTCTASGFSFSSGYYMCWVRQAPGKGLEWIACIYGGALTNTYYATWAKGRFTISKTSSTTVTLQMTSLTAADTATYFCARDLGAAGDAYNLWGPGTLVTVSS VL: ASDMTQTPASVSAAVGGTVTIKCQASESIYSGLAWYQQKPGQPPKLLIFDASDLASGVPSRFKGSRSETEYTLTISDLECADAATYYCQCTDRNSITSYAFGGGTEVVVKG
Output line: 23.4

Input line: Let us now turn to rabbit anti-human IgG monoclonal antibody clone 9E6 (antibody, V domains shown) VH: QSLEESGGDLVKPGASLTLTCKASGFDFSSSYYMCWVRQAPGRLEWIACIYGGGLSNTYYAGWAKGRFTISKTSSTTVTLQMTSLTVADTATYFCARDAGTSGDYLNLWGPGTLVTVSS VL: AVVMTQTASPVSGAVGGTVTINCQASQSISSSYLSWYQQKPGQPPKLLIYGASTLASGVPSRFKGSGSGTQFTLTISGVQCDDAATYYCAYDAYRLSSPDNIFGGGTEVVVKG
Output line: 28.4
